# maps each entry to its TGI
Test system: K-562 leukemia
assay overview: NCI tumour cell line growth inhibition, 48 h

Please review the entries below; each comes with its answer.
# molecule, observed measurement
rows = [
    ("Cc1cc(N(CCC#N)CCC#N)ccc1/C(N=Nc1cccc(Cl)c1)=N/NC(=O)c1cc(Cl)ccc1O", "> 100 µM"),
    ("C/C(=N/N=C(\\[O-])c1ccncc1)C(F)(F)F.C/C(=N\\N=C(/[O-])c1ccncc1)C(F)(F)F.[Ni+2]", "> 1 µM"),
    ("CCCCCO/N=C\\c1c2c(O)c3c(O)c(C)c4c(c3c1O)C(=O)C(C)(O/C=C\\C(OC)C(C)C(OC(C)=O)C(C)C(O)C(C)C(O)C(C)/C=C\\C=C(\\C)C(=O)N2)O4 (stereo unspecified)", "> 100 µM"),
]

Param item = CC1CN=C(N(Cc2ccccc2)C(=O)Nc2ccc(Cl)c(Cl)c2)S1 (stereo unspecified) ; retrieve measured TGI.
> 100 µM

Would you kindly repeat that for CC(C)=CCN1CC(C)C(=O)Nc2ccccc21 (stereo unspecified) ?
> 100 µM

Would you kindly repeat that for CCN(CC)c1ccc2c(c1)Oc1ccc(N(CC)CC)cc1C21Oc2ccccc2-c2c1c1ccccc1n2CC (stereo unspecified) ?
> 100 µM

Would you kindly repeat that for `N#Cc1nc(-c2ccco2)oc1N` ?
> 10 µM

Would you kindly repeat that for `C[CH2][Sn]([CH2]C)([O]C(=O)c1ccccc1OC)[O][Sn]([CH2]C)([CH2]C)[O]C(=O)c1ccccc1OC` ?
> 100 µM

Would you kindly repeat that for `c1ccc(CCc2cccnc2)nc1` ?
> 100 µM

Would you kindly repeat that for `Cc1nc(C(=O)O)c2ccccc2n1` ?
> 100 µM

----------
# maps each entry to its GI50
Tested on: SR leukemia
assay overview: NCI tumour cell line growth inhibition, 48 h

Please review the entries below; each comes with its answer.
# record smiles, parameter measured, observed measurement
measured = [
    ("CC(C)(O)CNc1nc(Nc2ccnc(C(F)(F)F)c2)nc(-c2cccc(C(F)(F)F)n2)n1", "GI50", "18.3 µM"),
    ("CCN(CC)CCCCCCNc1cc(OC)cc2cccnc12", "GI50", "1.99 µM"),
    ("Cc1cc(N=Nc2ccccc2C)ccc1N", "GI50", "8.49 µM"),
    ("Cc1cc(C)nc(SC2=C(Nc3cc(Cl)ccc3O)C(=O)N(Cc3ccccc3)C2=O)n1", "GI50", "18.6 µM"),
    ("Oc1ccc(C(c2ccc(O)cc2)c2ccc(Br)cn2)cc1", "GI50", "26 µM"),
]

Consider the record given below.
Param item = `Oc1c(I)cc(I)c2cccnc12` ; retrieve measured GI50.
5.75 µM

----------
# maps each entry to its TGI
Test system: SF-295 CNS
assay overview: NCI tumour cell line growth inhibition, 48 h

Please review the entries below; each comes with its answer.
# compound, observed measurement
records = [
    ("COCCNC(=O)C1C(=O)C(=O)N(CCOC)C1=O (centres undefined)", "> 100 µM"),
    ("O=C(CCC1C(=O)NC(=S)NC1=O)c1ccc2ccccc2c1", "> 100 µM"),
    ("O=S(=O)(c1cccc(N=C=S)c1)c1cccc(N=C=S)c1", "39.4 µM"),
]

Param item = `CCOC(=O)c1sc2nc(SC)nc3c2c1NCN3c1ccc2c(c1)OCO2` ; retrieve measured TGI.
53.3 µM

Would you kindly repeat that for O=C(O)c1cccc(C(=O)O)c1S(=O)Cc1ccccc1 (centres undefined) ?
> 100 µM

Would you kindly repeat that for `Nc1nc(Nc2ccccc2SSc2ccccc2Nc2nc(N)nc(C(Cl)(Cl)Cl)n2)nc(C(Cl)(Cl)Cl)n1` ?
4.75 µM

Would you kindly repeat that for C=C(C)C1Cc2c(c3ccccc3n(C)c2=O)O1 (centres undefined) ?
> 100 µM

Would you kindly repeat that for `NS(=O)(=O)c1ccc(-c2cc3ccncc3cc2OCc2ccccc2)cc1` ?
> 25 µM

Would you kindly repeat that for `Cn1cc(C2=C(c3cccc(OC[C@@H](O)CO)c3)C(=O)NC2=O)c2ccccc21` ?
> 25 µM

Would you kindly repeat that for CC(=O)NC1C(OCc2ccccc2)OC(CO)C(O)C1OC(C)C(=O)NC(C)C(=O)NC(CCC(=O)NCCCCNc1c2ccccc2nc2cccc([N+](=O)[O-])c12)C(N)=O (centres undefined) ?
1.66 µM

Would you kindly repeat that for `COC(=O)[C@]1(NC(=O)c2ccccc2)C[C@H]1C=O` ?
> 100 µM

Would you kindly repeat that for CC(=O)C1=CN=C2C(=O)N(c3ccccc3)N(C)C12C (centres undefined) ?
> 100 µM

Would you kindly repeat that for `COC(=O)CCCCC(=O)c1c(C)[nH]c(/C=C2\N=C(c3ccc[nH]3)C=C2OC)c1C` ?
3.05 µM

Would you kindly repeat that for `CCOC(=O)/C=C/CCO[Si](C)(C)C(C)(C)C` ?
> 100 µM
